Data provenance is the supplement of paper PMC3545927.

target under test: furin, P09958;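 note: purified furin at 1:10 enzyme:substrate in 50 mM HEPES pH 7.5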
Sequence (P09958 whole entry): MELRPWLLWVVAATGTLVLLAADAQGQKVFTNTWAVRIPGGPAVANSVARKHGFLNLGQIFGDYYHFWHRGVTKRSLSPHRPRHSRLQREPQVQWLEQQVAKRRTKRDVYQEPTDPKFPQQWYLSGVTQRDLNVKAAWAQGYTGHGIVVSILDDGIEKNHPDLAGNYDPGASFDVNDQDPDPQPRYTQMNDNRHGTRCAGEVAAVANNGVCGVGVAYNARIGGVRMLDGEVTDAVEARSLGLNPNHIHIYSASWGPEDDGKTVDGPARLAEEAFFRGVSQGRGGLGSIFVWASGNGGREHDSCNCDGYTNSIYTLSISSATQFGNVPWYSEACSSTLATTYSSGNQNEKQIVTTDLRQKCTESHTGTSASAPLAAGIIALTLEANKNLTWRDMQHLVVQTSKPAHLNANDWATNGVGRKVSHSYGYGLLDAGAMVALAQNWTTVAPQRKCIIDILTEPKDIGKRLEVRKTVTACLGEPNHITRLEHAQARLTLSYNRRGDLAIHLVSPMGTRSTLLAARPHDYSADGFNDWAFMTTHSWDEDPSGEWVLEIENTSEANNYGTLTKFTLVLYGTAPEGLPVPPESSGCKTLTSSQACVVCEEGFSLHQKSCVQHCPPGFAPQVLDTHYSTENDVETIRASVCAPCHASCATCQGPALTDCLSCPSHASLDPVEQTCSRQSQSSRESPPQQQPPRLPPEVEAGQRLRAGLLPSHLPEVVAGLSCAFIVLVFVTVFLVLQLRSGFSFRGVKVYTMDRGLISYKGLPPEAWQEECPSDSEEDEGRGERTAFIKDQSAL
assay explanation: furin cleavage Z-score vs untreated control; higher = more cleavage, active = 3.5 or more, inactive = 1 or less, 8 variable residues between constant flanks
condition description: 30 min
This is one part of the list. How many sequences the whole screen found active is unknown.
value kind: furin cleavage Z-score

Given the entry CAITAYAQQTAGNASASA [HC675] , report its measured furin cleavage Z-score.
-0.928 (inactive)

What measured furin cleavage Z-score goes with CARARRTLGHAGNASASA [FS-1684] ?
7.53 (active)

Name the recorded furin cleavage Z-score for CARARRTTIYAGNASASA [FS-3151] .
4.35 (active)

Param item = CAQASRTRRNAGNASASA [FS-621] ; retrieve measured furin cleavage Z-score.
10.1 (active)

Give the measured furin cleavage Z-score of CAEPRRSRRKAGNASASA [FS-23] .
5.36 (active)

Which furin cleavage Z-score value is on record for CAMDYRGRRKAGNASASA [FS-1544] ?
0.39 (inactive)

Item CALTKRLKRHAGNASASA [FS-689] has what recorded furin cleavage Z-score?
9.95 (active)

Param item = CARSGRRRRSAGNASASA [FS-88] ; retrieve measured furin cleavage Z-score.
4.99 (active)

So what's the measured furin cleavage Z-score for this one? CAAWRHRARSAGNASASA [HC1620]
1.59

Would you mind telling me what furin cleavage Z-score value was observed for CAEPLRKKKKAGNASASA [FS-1320] ?
-0.879 (inactive)

Quick one: furin cleavage Z-score for CACNDSLNTGAGNASASA [HC375] ?
-2.54 (inactive)

I would be grateful if you could share the reported furin cleavage Z-score for CATYQRHYRNAGNASASA [FS-512] .
2.99

Given the sequence CAKKQRSRRNAGNASASA [FS-1219] , what is its reported furin cleavage Z-score?
8.79 (active)
